molecular target: T1, Sf9-derived soluble HCV E2 glycoprotein (sE2), genotype 1a H77c, residues 384 to 661, monomeric (hepatitis C virus genotype 1a, strain …, UniProt P27958 384-661, N-glycans at positions 417, 423, 430, 448, 476, 532, 540, 556, 576, 623 and 645; mainly paucimannose-type glycans, with or without one or two core fucose residues); assay: BLI; Octet RED96; His6-tagged sE2 (5 ug/ml, 600 s) loaded on Ni2+-NTA biosensors and stabilised with EDC/NHS, quenched with 1 M ethanolamine pH 8.0; association 300 s, dissociation 300 s; 2-fold dilution series of CD81 or HMAb (IgG format); steady-state analysis by the legend, global fit by the methods; values may reflect bivalent IgG binding; settings: both partners purified
T1 construct: HCV envelope glycoprotein E2 lacking the C-terminal transmembrane anchor, amino acids 384 to 661 of the strain 1a HCV H77c polyprotein; also called Sf9-derived sE2; Sf9 sE2; source: Sf9 cells infected with recombinant baculovirus, secreted; purified from culture supernatant (HisTrap Ni2+-NTA, Superdex 200; monomer peak); not shown: His6, C-terminal, kept
T1 sequence (P27958 384-661): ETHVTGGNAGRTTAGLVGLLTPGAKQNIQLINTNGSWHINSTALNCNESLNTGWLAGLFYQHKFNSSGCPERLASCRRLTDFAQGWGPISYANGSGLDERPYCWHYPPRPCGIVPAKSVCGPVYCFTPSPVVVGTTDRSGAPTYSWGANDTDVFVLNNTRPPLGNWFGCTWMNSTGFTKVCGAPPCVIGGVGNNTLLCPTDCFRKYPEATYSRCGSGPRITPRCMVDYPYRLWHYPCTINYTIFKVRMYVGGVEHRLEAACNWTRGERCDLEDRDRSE
endpoint: Kd
Please give the number followed by its unit.

Inquiry: Consider the binder shown here: Human CD81 large extracellular loop (CD81-LEL; CD81 residues 113 to 201) (domain or fragment, UniProt P60033 113-201, looked up, human CD81 large extracellular loop, residues 113 to 201; Cloned into the vector pHLsec (Addgene plasmid #99845 is the vector); The C-terminal His6 tag was stripped with carboxypeptidase A-agarose before biolayer interferometry; also called recombinant CD81; source: FreeStyle HEK293-F cells, transfected, secreted; purified from culture supernatant (HiTrap chelating HP Ni2+-NTA, Superdex 75); not …) FVNKDQIAKDVKQFYDQALQQAVVDDDANNAKAVVKTFHETLDCCGSSTLTALTTSVLKNNLCPSGSNIISNLFKEDCHQKIDDLFSGK What is its recorded Kd?
Reply text: 440 nM
